Provenance of the data: ChEMBL document CHEMBL3860034

Target: Sortase A (Staphylococcus aureus, UniProt Q9S446)
Sequence (Q9S446 whole entry): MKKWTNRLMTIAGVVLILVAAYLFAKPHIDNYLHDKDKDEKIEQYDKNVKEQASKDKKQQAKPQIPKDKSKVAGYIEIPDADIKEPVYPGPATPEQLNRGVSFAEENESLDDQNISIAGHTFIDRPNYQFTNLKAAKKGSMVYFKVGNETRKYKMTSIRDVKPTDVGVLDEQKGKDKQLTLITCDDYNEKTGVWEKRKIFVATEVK
*1 amine or outer side, *2 acyl side, *3 side chain or, on linkers, in order; H or OH if unused. Where a SMILES comes first, the peptide text is derived from it. Bridges are numbered along the chain shown (N, C = ends). TBMB = c1c(C[*:1])cc(C[*:3])cc1C[*:2]
Reported Ki by item:
Report as a plain number; the unit µM is understood.

The recorded Ki for CC(C)C[C@@H]1NC(=O)[C@H](CCC(N)=O)NC(=O)[C@H](CCCNC(=N)N)NC(=O)[C@@H](NC(=O)[C@H](C)N)CSCc2cc3cc(c2)CSC[C@H](NC(=O)[C@@H]2CCCN2C(=O)[C@@H]2CCCN2C1=O)C(=O)N[C@@H](CO)C(=O)N[C@@H](Cc1ccccc1)C(=O)N[C@@H](CCC(=O)O)C(=O)N[C@H](C(=O)NCC(N)=O)CSC3 (H-ACRQLPPCSFECG-NH2; linker 2-8-12 via TBMB) is 11.6

get_value(item= CC[C@H](C)[C@@H]1NC(=O)[C@H](CO)NC(=O)[C@@H](NC(=O)[C@H](C)N)CSCc2cc3cc(c2)CSC[C@H](NC(=O)[C@@H]2CCCN2C(=O)[C@@H]2CCCN2C(=O)[C@H](CC(C)C)NC1=O)C(=O)N[C@@H](CC(N)=O)C(=O)N1CCC[C@H]1C(=O)N1CCC[C@H]1C(=O)N[C@@H](CCC(N)=O)C(=O)N[C@H](C(=O)NCC(N)=O)CSC3 , readout=Ki) returns 11.1

In the following, a different compound is considered.
// CC(C)C[C@@H]1NC(=O)[C@@H]2CSCc3cc(cc(c3)CSC[C@H](NC(=O)[C@H](C)N)C(=O)N3CCC[C@H]3C(=O)N[C@@H](CCC(N)=O)C(=O)N[C@@H](CC(C)C)C(=O)N3CCC[C@H]3C(=O)N3CCC[C@H]3C(=O)N2)CSC[C@@H](C(=O)NCC(N)=O)NC(=O)[C@@H]2CCCN2C(=O)[C@H](Cc2ccc(O)cc2)NC1=O (H-ACPQLPPCLYPCG-NH2; linker 2-8-12 via TBMB) : Ki value = 7.4
